Every entry's value here was drawn from PubChem BioAssay.

assay: E. coli growth modulation, two-sided OD650, primary screen, E. coli filamentation project, strain DRC41, 24 h (AID 1093); settings: OD650, 24 h, higher = more signal, called active from +8 up or from −8 down;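 note: MC1000 strain lacking acrAB efflux and sulA so SOS filamentation is blocked; test concentration not given here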
So I've got a bunch of molecules here, and I need their z-score values.
Please state the value as a number alone, without comment.

Prompt: Please give the measured z-score for this molecule: C=CCOC(=O)[C@H]1[C@@H]2C(=O)O[C@@H](c3ccccc3)[C@@H](c3ccccc3)N2[C@@H](c2ccc(OCCOC(=O)[C@@H]3C[C@@H]4C(=O)N[C@@H](CC(C)C)C(=O)N4[C@@H]3c3ccc(O)cc3)cc2)[C@]12C(=O)Nc1ccccc12
Response: 0.703

Prompt: Please give the measured z-score for this molecule: [N-]=[N+]=Nc1ccccc1[C@H]1OC(c2ccc(OCCCO)cc2)=N[C@@]1(CCS(=O)(=O)c1ccccc1)C(=O)NCC(O)CO (some centres not stated)
Response: -0.168

Prompt: Please give the measured z-score for this molecule: COCCOC(=O)N1C(=O)[C@@]2(c3ccccc31)[C@H](c1ccc(O)cc1)N1[C@H](c3ccccc3)[C@H](c3ccccc3)OC(=O)[C@H]1[C@@H]2C(=O)Nc1nc2ccccc2s1
Response: 1.31

Prompt: Please give the measured z-score for this molecule: CN(C)CCCC[C@@H]1NC(=O)[C@H]2C[C@@H](C(=O)NCCCCCCN)[C@@H](c3ccc(O)cc3)N2C1=O
Response: 0.278

Prompt: Please give the measured z-score for this molecule: COC(=O)[C@@]1(Cc2ccc(OC)cc2)[C@@H]2C(=CC(=O)[C@H]2CC(=O)C(=O)N2CCCC2)CN1C(=O)c1ccccc1
Response: 0.355

Prompt: Please give the measured z-score for this molecule: C=C(COC)/C(=C/C[C@@H](OC(=O)c1ccncc1)c1ccc(CO)o1)c1cc(C(=O)OC)ccc1OC
Response: 0.564

Prompt: Please give the measured z-score for this molecule: CCC[C@@H]1C[C@@]1(CCC)[C@@H](NC(=O)c1ccccc1)c1cccc(Cl)c1
Response: -0.452

====

So I've got a bunch of compounds here, and I need their composite z-score values.
target: Streptavidin (Streptomyces avidinii) (UniProt P22629); assay: streptavidin binders on small-molecule microarray, primary screen, artefact control for SMM compound annotation, biophysical, 635/667 nm fluorescence (AID 1147); conditions: streptavidin binding, higher = more signal;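 note: signal reflects streptavidin binding to arrayed compounds as a control protein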
Sequence (P22629 whole entry, looked up): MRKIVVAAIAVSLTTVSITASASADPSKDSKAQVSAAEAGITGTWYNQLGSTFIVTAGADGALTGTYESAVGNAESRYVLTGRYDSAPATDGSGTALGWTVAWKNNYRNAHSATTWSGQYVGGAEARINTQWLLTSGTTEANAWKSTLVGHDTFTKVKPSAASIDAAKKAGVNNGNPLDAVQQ
Please state the value as a number alone, without comment.

Prompt: Please give the measured composite z-score for this compound: C=CCC(OC(C)=O)[C@@H]1[C@@H](N(Cc2ccc(-c3cccc(C(F)(F)F)c3)o2)C(=O)c2ccc(C)cc2)c2cc(OCCCO)ccc2N1C(=O)Cc1ccc2ccccc2c1 (stereo partly drawn)
Response: -0.269

Prompt: Please give the measured composite z-score for this compound: COCCOC(=O)N1C(=O)[C@@]2(c3cc(C#CCCO)ccc31)[C@H](C(=O)N1CCCCCCC1)[C@H]1C(=O)O[C@H](c3ccccc3)[C@H](c3ccccc3)N1[C@@H]2c1ccc(OCCO)cc1
Response: 1.43

Prompt: Please give the measured composite z-score for this compound: O=C1O[C@H](c2ccccc2)[C@H](c2ccccc2)N2[C@H]1[C@@H](C(=O)N1CCCCCCC1)[C@]1(C(=O)Nc3ccc(C#CCCO)cc31)[C@H]2c1ccccc1OCCO
Response: 4.08

Prompt: Please give the measured composite z-score for this compound: C=C(CCCC)/C(=C/C[C@@H](OC(C)=O)c1ccc(OCCO)cc1)c1cnc2ccccc2c1
Response: 0.514

Prompt: Please give the measured composite z-score for this compound: CC(C)[Si]1(C(C)C)O[C@@H](c2ccccc2)c2cc(-c3ccc(-c4ccc(Cl)c(Cl)c4)o3)nc(-c3ccccc3)c21
Response: 0.105

Prompt: Please give the measured composite z-score for this compound: C=CCC(OC(C)=O)[C@@H]1[C@@H](N(Cc2ccc(-c3ccccc3)cc2)C(=O)c2ccc(-c3ccccc3)cc2)c2cc(OCCCO)ccc2N1C(=O)Cc1ccc2ccccc2c1 (stereo partly drawn)
Response: 0.497

Prompt: Please give the measured composite z-score for this compound: CCCC#C[Si](O[C@H](CC)c1cn(Cc2cccc(Cl)c2)nn1)(C(C)C)C(C)C
Response: 0.379

Prompt: Please give the measured composite z-score for this compound: COc1ccc(C(=O)Nc2ccc(CN3C(=O)[C@]4(O[C@H](CCO)[C@@H]([Si](C)(C)c5ccc(OC)cc5)[C@@H]4C)c4ccccc43)cc2)cc1
Response: 0.566

Prompt: Please give the measured composite z-score for this compound: CCC[C@@H]1C[C@@]1(CCC)[C@@H](NS(=O)(=O)c1cccc2cccnc12)c1ccc(Cl)cc1
Response: 0.633

Prompt: Please give the measured composite z-score for this compound: CC1(C)[C@@H]2CC(C(O)C3C=CC4C(=O)N(c5ccccc5)C(=O)C4N3Nc3ccc([N+](=O)[O-])cc3)=C[C@H]1C2 (stereo partly drawn)
Response: 1.18

Prompt: Please give the measured composite z-score for this compound: COc1ccc([C@H]2OC[C@@H]3C[C@@H](Cc4ccccc4)C(=O)N32)cc1
Response: -0.679

Prompt: Please give the measured composite z-score for this compound: CCOC(=O)C[C@H]1[C@H](OC(=O)c2ccc(C(=O)c3ccccc3)cc2)[C@@H](NC(=O)c2ccc3ccccc3c2)c2cc(OCCCO)ccc2N1C(=O)Cc1ccc(OC)cc1
Response: 0.271

Prompt: Please give the measured composite z-score for this compound: C=CCN1C(=O)[C@@]2(CC=C)N=C(c3ccc(OCCCO)cc3)O[C@H]2c2ccccc21
Response: 0.26

Prompt: Please give the measured composite z-score for this compound: COC(=O)[C@@]1(Cc2ccc(F)cc2)[C@H]2c3cc(C(=O)N4CCCC4)n(Cc4ccc(S(C)(=O)=O)cc4)c3C[C@H]2CN1C(=O)c1ccccc1
Response: 1.19

Prompt: Please give the measured composite z-score for this compound: COCCOC(=O)N1C(=O)[C@@]2(c3ccccc31)[C@H](C(=O)N1CCc3cc(OC)c(OC)cc3C1)[C@H]1C(=O)O[C@H](c3ccccc3)[C@H](c3ccccc3)N1[C@@H]2c1ccc(OCCO)cc1
Response: 0.547

Prompt: Please give the measured composite z-score for this compound: [N-]=[N+]=NCc1ccccc1[C@@H]1OC(c2ccc(OCCCO)cc2)=N[C@]1(Cc1ccccc1)C(=O)NCC(O)CO (stereo partly drawn)
Response: 0.255

Prompt: Please give the measured composite z-score for this compound: C[N+](C)(C)CCCC[C@@H]1NC(=O)[C@H]2C[C@@H](C(=O)NCCCCCCNC(=O)CS)[C@@H](c3cccc(OCCO)c3)N2C1=O
Response: -0.667

Prompt: Please give the measured composite z-score for this compound: O=C(NCCO)C1=C[C@H](Oc2ccccc2I)[C@@H](O)[C@H](N(Cc2ccco2)C(=O)Cc2ccccc2)C1
Response: 0.317

Prompt: Please give the measured composite z-score for this compound: O=C(CS)NCCCCCCNC(=O)[C@@H]1C[C@@H]2C(=O)NCC(=O)N2[C@@H]1c1cccc(OCCO)c1
Response: 0.0478

Prompt: Please give the measured composite z-score for this compound: CCCC[C@H]1OB(O)C[C@H]2C1=C(COC)C[C@H]1C(=O)N(C)C(=O)[C@H]12
Response: 0.727

Prompt: Please give the measured composite z-score for this compound: O=C1C[C@@](C(=O)NCC(F)(F)F)(c2ccc([N+](=O)[O-])cc2)[C@@H](c2ccc(CO)cc2I)N1C1CCCCC1
Response: 0.514

Prompt: Please give the measured composite z-score for this compound: CCCC[C@@H]1C[C@H]1[C@@H](NC(=O)c1ccco1)c1ccc(-c2ccccc2)cc1
Response: 0.483

Prompt: Please give the measured composite z-score for this compound: C=C[C@H](C)[C@@H](OC(=O)Nc1ccc(OC)cc1)c1ccc(O)c2ccccc12
Response: -0.387

Prompt: Please give the measured composite z-score for this compound: Cc1ccc(S[C@]2(C(=O)NCCCN(C)C)CC(=O)N(Cc3ccccc3C(F)(F)F)[C@@H]2c2ccc(CO)cc2)cc1
Response: -0.0283

Prompt: Please give the measured composite z-score for this compound: COCCOC(=O)N1C(=O)[C@@]2(c3cc(C#CCNC(N)=O)ccc31)[C@H](C(=O)Nc1nc3ccccc3s1)[C@H]1C(=O)O[C@H](c3ccccc3)[C@H](c3ccccc3)N1[C@@H]2c1ccc(OCCO)cc1
Response: 0.664

Prompt: Please give the measured composite z-score for this compound: C=C(COC)/C(=C/C[C@H](OC(C)=O)c1ccc(CO)o1)c1cc(C(=O)OC)ccc1OC
Response: -0.427

Prompt: Please give the measured composite z-score for this compound: CC(C)C[C@@H]1NC(=O)[C@@H]2C[C@H](C(=O)O)[C@H](c3cccc(OCCO)c3)N2C1=O
Response: -0.811

Prompt: Please give the measured composite z-score for this compound: CN1C=C(C(=O)OCCS(C)(=O)=O)C(C(=O)OCCS(C)(=O)=O)=CC(c2ccc(CO)cc2)=CC1C1CC1 (stereo not drawn)
Response: -0.0005
